Quick reference for viability, T/C among some compounds
tested on: 454973-116-R2-J3-PDC spheroids, viability, % test/control; test: Anticancer human tumor 454973-116-R2-J3-PDC patient-derived pancreatic carcinoma cell line growth inhibition [GQUAD]; details: second compound 0.316 µM; first compound 0.00316 µM; stronger effect = lower value; spheroids with HUVEC and MSC
Give your result in % as a bare value.

Reference set, count: 3
Query block: viability, T/C of CC[C@@]1(O)C(=O)OCc2c1cc1n(c2=O)Cc2cc3c(CN(C)C)c(O)ccc3nc2-1 + Cc1[nH]c2ccc(F)cc2c1-c1nc2c3cccnc3c3ncccc3c2[nH]1 on 454973-116-R2-J3-PDC spheroids, viability, % test/control?
Result block: 119

Query block: viability, T/C of Cc1[nH]c2ccccc2c1CCNCc1ccc(/C=C/C(=O)NO)cc1 + Cc1[nH]c2ccc(F)cc2c1-c1nc2c3cccnc3c3ncccc3c2[nH]1 on 454973-116-R2-J3-PDC spheroids, viability, % test/control?
Result block: 110

Query block: viability, T/C of CC[C@@]1(O)C(=O)OCc2c1cc1n(c2=O)Cc2cc3c(CN(C)C)c(O)ccc3nc2-1 + Cc1cnc(CNC(=O)c2c(=O)c3ccc(N4CCCN(C)CC4)nc3n3c2sc2ccccc23)cn1 on 454973-116-R2-J3-PDC spheroids, viability, % test/control?
Result block: 69.1

Consider the additional compound presented here.
Query block: viability, T/C of Cc1[nH]c2ccccc2c1CCNCc1ccc(/C=C/C(=O)NO)cc1 + Cc1cnc(CNC(=O)c2c(=O)c3ccc(N4CCCN(C)CC4)nc3n3c2sc2ccccc23)cn1 on 454973-116-R2-J3-PDC spheroids, viability, % test/control?
Result block: 71.8

###

Quick reference for viability, T/C among some compounds
tested on: 454973-116-R2-J3-PDC spheroids, viability, % test/control; assay: Anticancer human tumor 454973-116-R2-J3-PDC cell line growth inhibition [GQUAD]; settings: second compound 3.16 µM; first compound 0.000999 µM; stronger effect = lower value; spheroids with HUVEC and MSC;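 note: spheroids exposed to compounds for seven days; 100% = DMSO vehicle control viability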
Give your result in % as a bare value.

Query block: viability, T/C of Cn1ncnc1[C@H]1c2n[nH]c(=O)c3cc(F)cc(c23)N[C@@H]1c1ccc(F)cc1 + Cc1cnc(CNC(=O)c2c(=O)c3ccc(N4CCCN(C)CC4)nc3n3c2sc2ccccc23)cn1 on 454973-116-R2-J3-PDC spheroids, viability, % test/control?
Result block: 62.1

Query block: viability, T/C of Cc1[nH]c2ccccc2c1CCNCc1ccc(/C=C/C(=O)NO)cc1 + CN(C)c1ccc(Nc2c3ccc(NC(=O)CCN4CCCC4)cc3nc3cc(NC(=O)CCN4CCCC4)ccc23)cc1 on 454973-116-R2-J3-PDC spheroids, viability, % test/control?
Result block: 90.1

Query block: viability, T/C of CCc1c2c(nc3ccc(O)cc13)-c1cc3c(c(=O)n1C2)COC(=O)[C@]3(O)CC + CN(C)c1ccc(Nc2c3ccc(NC(=O)CCN4CCCC4)cc3nc3cc(NC(=O)CCN4CCCC4)ccc23)cc1 on 454973-116-R2-J3-PDC spheroids, viability, % test/control?
Result block: 62.5

Query block: viability, T/C of Cc1[nH]c2ccccc2c1CCNCc1ccc(/C=C/C(=O)NO)cc1 + Cc1[nH]c2ccc(F)cc2c1-c1nc2c3cccnc3c3ncccc3c2[nH]1 on 454973-116-R2-J3-PDC spheroids, viability, % test/control?
Result block: 99.7

Query block: viability, T/C of CCc1c2c(nc3ccc(O)cc13)-c1cc3c(c(=O)n1C2)COC(=O)[C@]3(O)CC + Cc1[nH]c2ccc(F)cc2c1-c1nc2c3cccnc3c3ncccc3c2[nH]1 on 454973-116-R2-J3-PDC spheroids, viability, % test/control?
Result block: 59.1

Query block: viability, T/C of CC[C@@]1(O)C(=O)OCc2c1cc1n(c2=O)Cc2cc3c(CN(C)C)c(O)ccc3nc2-1 + Cc1cnc(CNC(=O)c2c(=O)c3ccc(N4CCCN(C)CC4)nc3n3c2sc2ccccc23)cn1 on 454973-116-R2-J3-PDC spheroids, viability, % test/control?
Result block: 61.2
